system: CCRIS mutagenicity, Ames/micronucleus/aberration tests; assay: CCRIS mutagenicity studies; conditions: Test System: AMES SALMONELLA TYPHIMURIUM; Strain/Indicator: TA100; Metabolic Activation: RAT, LIVER, MICROSOMES; Method: PREINCUBATION
Activity calls are given as the source filed them. The rule behind the calls is not given here.
measure: mutagenic call

Solved entries:
ClCC(Br)CBr (stereo not given) | active; positive
CC(Br)(CCl)CBr (stereo not given) | inactive; negative
O=P(OCC(Br)CBr)(OCC(Br)CBr)OCC(Br)CBr (stereo not given) | active; positive
CC(C)(Br)C(Br)COP(=O)(OCC(Br)C(C)(C)Br)OCC(Br)C(C)(C)Br (stereo not given) | inactive; negative

Reported mutagenic call, molecule C=C(Br)C(=O)O : ____
inactive; negative

====

test system: CCRIS mutagenicity, Ames/micronucleus/aberration tests; assay: CCRIS mutagenicity studies; conditions: Test System: AMES SALMONELLA TYPHIMURIUM; Strain/Indicator: TA100; Metabolic Activation: RABBIT, LIVER, S-9; Method: PREINCUBATION
Calls of active or inactive are those of the source. No rule for the calls is given here.
// allowed return values: class 1 (active), class 0 (inactive)

CC(=O)CN(CC(C)=O)N=O | class 1
CC(O)CN(C)N=O (centres undefined) | class 1
N=C(N)c1ccccc1 | class 0

Give the logged outcome of this assay for the following molecule: N/C(=N\O)c1ccccc1
class 0

====

tested on: CCRIS mutagenicity, Ames/micronucleus/aberration tests; experiment: CCRIS mutagenicity studies; settings: Test System: AMES SALMONELLA TYPHIMURIUM; Strain/Indicator: TA97; Metabolic Activation: RAT, LIVER, S-9, AROCLOR 1254 (10%); Method: PREINCUBATION
Active and inactive are the calls of the source. The rule behind the calls is not given here.
Pick from active, inactive when you respond.

ClCC(Cl)Cl | inactive
O=S(=O)(O)c1ccc(N=Nc2c(O)ccc3cc(S(=O)(=O)O)ccc23)cc1 | inactive

Would you mind telling me which call this test gave COC(=O)c1ccc(C)cc1 ?
inactive

====

system: CCRIS mutagenicity, Ames/micronucleus/aberration tests; experiment: CCRIS mutagenicity studies; conditions: Test System: AMES SALMONELLA TYPHIMURIUM; Strain/Indicator: TA100; Metabolic Activation: NONE; Method: PREINCUBATION
Calls of active or inactive are those of the source. The rule behind the calls is not given here.
# output must be one of active, inactive

Check out these entries, answers already filled in.
COc1ccc(CC2CO2)cc1OC (centres undefined) | active
C[Si](C)(C)CN(N=O)C(N)=O | active
C=CC1CO1 (centres undefined) | active
C[C@]12C=CC(=O)C=C1CC[C@@H]1[C@@H]2[C@@H](O)C[C@@]2(C)[C@H]1CC[C@]2(O)C(=O)CO | inactive
Oc1ccccc1-c1ccccc1 | inactive

Recorded test call requested for Nc1ccc(S(=O)(=O)O)c2ccccc12
inactive

Queued: Oc1c(I)cc(Cl)c2cccnc12
inactive

What about [O]=[Cd] ?
inactive

Again, but for OCC(Br)CBr (centres undefined)
active

Please give the result for CCCC(=O)Nc1ncnc2c1ncn2[C@@H]1O[C@@H]2COP(=O)(O)O[C@H]2[C@H]1OC(=O)CCC too.
inactive

Try the molecule CC(=O)OCc1ccccc1[N+](=O)[O-]
inactive

And the next one, CN(C)CCN(C)C ?
inactive

Also C=CCOC(=O)c1ccccc1N , if possible.
inactive

Same for CCN(N=O)c1ccccc1
inactive
